IC50 values by entry
Target: recombinant TDP1 (Homo sapiens, UniProt Q9NUW8)
Sequence (Q9NUW8 whole entry): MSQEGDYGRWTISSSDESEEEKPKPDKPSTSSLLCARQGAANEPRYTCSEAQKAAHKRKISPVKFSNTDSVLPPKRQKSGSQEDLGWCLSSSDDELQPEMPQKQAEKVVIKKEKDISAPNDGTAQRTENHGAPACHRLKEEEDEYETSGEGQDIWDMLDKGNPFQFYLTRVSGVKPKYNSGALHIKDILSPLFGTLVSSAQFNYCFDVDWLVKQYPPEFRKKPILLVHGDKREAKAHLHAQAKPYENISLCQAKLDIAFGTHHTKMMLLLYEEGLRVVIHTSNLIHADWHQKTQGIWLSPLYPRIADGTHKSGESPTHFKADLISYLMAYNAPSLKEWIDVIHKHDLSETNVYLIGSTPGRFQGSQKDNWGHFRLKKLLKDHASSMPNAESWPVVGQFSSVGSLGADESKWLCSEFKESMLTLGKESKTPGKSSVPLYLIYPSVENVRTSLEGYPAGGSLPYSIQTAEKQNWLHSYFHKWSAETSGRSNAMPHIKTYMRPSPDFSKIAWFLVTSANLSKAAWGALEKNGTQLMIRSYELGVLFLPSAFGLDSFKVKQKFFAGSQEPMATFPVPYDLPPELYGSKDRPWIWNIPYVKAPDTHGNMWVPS
Test: Gel-based assay measuring the inhibition of recombinant TDP1
Format: biochemical
Conditions: Table 5; determined in duplicate; read-out: TDP1 inhibitory activity (potency score)

Solved entries (count: 3):
smiles string	IC50
COc1cc2c(=O)n(CCCN3CCOCC3)c3c(c2cc1OCCCN1CCCCC1)C(=O)c1cc2c(cc1-3)OCO2	12 to 37 µM
COc1cc2c(=O)n(CCCN3CCOCC3)c3c(c2cc1OCCCN1CCCC1)C(=O)c1cc2c(cc1-3)OCO2	1 to 37 µM
COc1cc2c(=O)n(CCCN3CCOCC3)c3c(c2cc1OCCCN(C)C)C(=O)c1cc2c(cc1-3)OCO2	12 to 37 µM

Next, consider the following molecule.
[Q] Output IC50 of CCNCCCOc1cc2c3c(n(CCCN4CCOCC4)c(=O)c2cc1OC)-c1cc2c(cc1C3=O)OCO2
[A] 12 to 37 µM

====

The entries below come with measured GI50 values attached.
Test system: breast MDA-MB-435
Experiment: COMPARE screening (NCI human cancer cell line screen), cytotoxicity GI50
Type: cell-based

// solved cases for GI50 follow
smiles string	GI50
COc1cc2c3c(n(CCN4CCOCC4)c(=O)c2cc1OC)-c1ccccc1C3=O	> 100 µM
COc1ccc2c(c1)C(=O)c1c-2n(CCCN2CCOCC2)c(=O)c2cc([N+](=O)[O-])ccc12	< 0.01 µM

Then this compound:
[Q] Give the reported GI50 for this compound. CC(C)(C)OC(=O)NCCCCCCCCCCCCn1c2c(c3ccccc3c1=O)C(=O)c1ccccc1-2
[A] > 100 µM

====

System: ovarian OVCAR-3
Test: COMPARE screening (NCI human cancer cell line screen), cytotoxicity GI50
Assay type: cell-based
Conditions: Homo sapiens, OVCAR-3, read-out: cytotoxicity (GI50) ovarian OVCAR-3
measurement label: GI50

Worked set:
molecule	GI50
Cl.O=C1c2ccccc2-c2c1c1ccccc1c(=O)n2CCc1ccccn1 [Compound 5ay, Hydrochloride]	> 100 µM
Nn1c2c(c3ccccc3c1=O)C(=O)c1ccccc1-2	> 50.1 µM
O=C1c2ccccc2-c2c1c1ccc([N+](=O)[O-])cc1c(=O)n2CCN1CCOCC1	> 100 µM

Please find the next molecule below.
[Q] Return GI50 for the following molecule: O=C1c2ccccc2-c2oc(=O)c3ccccc3c21 [Compound 4d, Benz[d]indeno[1,2-b]pyran-5,11-dione]
[A] > 100 µM

====

Tested on: renal SN12C
Assay: COMPARE screening (NCI human cancer cell line screen), cytotoxicity GI50
Assay type: cell-based
Experimental: Selected compounds were tested for antiproliferative activity in the National Cancer Institute's developmental therapeutics assay 60 cell line screen (NCI60). The cells were incubated with the tested compounds at 100, 10, 1, 0.1, and 0.01 μM concentrations for 48 h before treatment with sulforhodamine B dye. Optical densities were recorded, and their ratios relative to that of the control were plotted as percentage growth against the log 10 of the tested compound concentrations.
Measured GI50 values are reported for all entries that follow.

See these solved cases before continuing.
compound	GI50
CC(C)(C)OC(=O)NCCCCCCCCCCCCn1c2c(c3ccccc3c1=O)C(=O)c1ccccc1-2	> 100000 nM
COc1ccc2c(c1)C(=O)c1c-2n(CCCN)c(=O)c2ccccc12.Cl	< 10 nM
COc1ccc2c(c1)C(=O)c1c-2n(CCCN2CCOCC2)c(=O)c2cc([N+](=O)[O-])ccc12	< 10 nM
O=C(O)C(F)(F)F.O=C(O)C(F)(F)F.O=C1c2ccccc2-c2c1c1ccccc1c(=O)n2CCCNCCNCCCn1c2c(c3ccccc3c1=O)C(=O)c1ccccc1-2 [Compound 14e]	< 10 nM
COc1cc2c3c(n(CCCN4CCN(CCO)CC4)c(=O)c2cc1OC)-c1cc2c(cc1C3=O)OCO2	> 100000 nM
COc1ccc2c(c1)C(=O)c1c-2n(CCCN(C)C)c(=O)c2cc([N+](=O)[O-])ccc12	< 10 nM
O=C1c2ccccc2-c2oc(=O)c3cc4c(cc3c21)OCO4	> 100000 nM
CC(C)(C)OC(=O)NCCCCCCCCn1c2c(c3ccccc3c1=O)C(=O)c1ccccc1-2	> 50100 nM

Proceed to the following item.
[Q] Supply GI50 value. Item: COc1cc2c3c(n(CCN4CCOCC4)c(=O)c2cc1OC)-c1ccccc1C3=O
[A] > 100000 nM
